Answer each item with its documented abundance fitness.
B1: Transitional endoplasmic reticulum ATPase, residues 26 to 106; numbered along this chain, P55072 (parent)
chain: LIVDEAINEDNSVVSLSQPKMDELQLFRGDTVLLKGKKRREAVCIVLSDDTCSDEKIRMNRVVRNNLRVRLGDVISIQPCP

# Variants of: B1
# test.protocol: abundance fitness (aPCA) (normalised: wild type 0, dead -1); higher = more abundant; growth selection in yeast, the domain comes from the species named
# condition.parameters: Homo sapiens
Give bare numbers.

Below, 3 variants whose answers are already recorded.
R28S :: -0.009
L24G :: -0.775
D50K :: -0.105

Look at each variant and report its abundance fitness.
1. V69R
2. L34W

Result:
1. -0.665
2. -0.777

Look at each variant and report its abundance fitness.
1. D4F
2. V69T
3. R70D
4. S12R
5. S15G
6. R58P
7. I75N

Result:
-0.345
-0.12
-0.091
-0.038
0.034
-0.927
-0.842

Look at each variant and report its abundance fitness.
1. S53N
2. G72A
3. P79H
4. N8K
5. P81G
6. N11P
7. R58Y
8. Q25I

Result:
1: 0.044; 2: -0.271; 3: -0.037; 4: -0.011; 5: -0.451; 6: -0.011; 7: -0.093; 8: -0.043

Look at each variant and report its abundance fitness.
1. M21Q
2. I2L

Result:
1. -0.752
2. -0.115
